# Target of assay: Olfactory receptor 51E2 (Homo sapiens, UniProt Q9H255)
# Sequence (Q9H255 whole entry): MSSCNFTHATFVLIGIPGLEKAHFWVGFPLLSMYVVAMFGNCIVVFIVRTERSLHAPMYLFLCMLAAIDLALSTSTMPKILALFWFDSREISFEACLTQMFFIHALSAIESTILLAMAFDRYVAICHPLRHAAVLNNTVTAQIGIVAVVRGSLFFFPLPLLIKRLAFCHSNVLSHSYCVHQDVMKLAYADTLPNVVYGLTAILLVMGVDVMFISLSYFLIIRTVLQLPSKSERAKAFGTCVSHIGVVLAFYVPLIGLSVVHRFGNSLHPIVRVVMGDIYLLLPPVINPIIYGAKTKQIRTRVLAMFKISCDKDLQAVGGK
# Assay protocol: Agonist activity at PSGR/OR51E2 (unknown origin) expressed in human Hana3A cells co-transfected with CRE-Luc by luciferase reporter gene assay
# Format: functional, cell-based
Attribute measured: pEC50
Entry type: numeric. Quantity: pEC50, the -log10 of concentration in molar units.

Ask: Requested read-out pEC50, target or system Olfactory receptor 51E2 (Homo sapiens, UniProt Q9H255), entry Nc1nc2[nH]c(O)nc2c(=O)[nH]1
Reply: 12.36
